- Assay Remarks: gradient 5% acetonitrile 3 min, to 50% in 2 min, to 85% in 15 min, held 3 min, 100 µL/min
- Assay Setup: column: Zorbax Extend-C18 2.1 x 50 mm; eluents: water / acetonitrile, 0.1% formic acid
Parameter: RP-LC retention time (s)

O=C(c1cc2c(=O)n(Cc3ccccc3)ccc2s1)N1CCCCCC1 = 876
O=C(NCC(=O)N1CC2CN(S(=O)(=O)c3cccc(F)c3)CC(C1)O2)c1ccccc1 = 730
Cc1cc(S(=O)(=O)C(CNC(=O)c2cccs2)c2ccco2)ccc1F (stereo not given) = 815

P = CCN1CCC2(CC1)OC(=O)C(C)=C2C(=O)Nc1ccc(Br)cc1F
Q = Cc1ccc(-c2nnc(Cc3nc(-c4cccc(Br)c4)no3)o2)cc1C
Lowest RP-LC retention time? choose P or Q Pick one and reply with its label. P
(P: 650 s, Q: 1270 s)

---

- Assay Remarks: gradient 5% acetonitrile 3 min, to 50% in 2 min, to 85% in 15 min, held 3 min, 100 µL/min
- Assay Setup: column: Zorbax Extend-C18 2.1 x 50 mm; eluents: water / acetonitrile, 0.1% formic acid
Parameter: RP-LC retention time (s)

Some molecules with known RP-LC retention time results, for comparison:
O=C(c1nnc(-c2ccc(S(=O)(=O)N3CCOCC3)cc2)o1)N1CCCCC1 = 785
CCNC(=O)c1cc2cc(C)ccc2[nH]1 = 791
CC(=O)Nc1cccc(C2OC(c3ccc(Cl)cc3Cl)=NN2C(C)=O)c1 (stereo not given) = 914

P = COC(=O)c1ccc(C(=O)Nc2ccncc2NC(=O)c2ccc(C(=O)OC)cc2)cc1
Q = Cc1nc(-c2ccc(N3CCN(C(=O)c4cccc(Cl)c4)CC3)nc2)sc1C
Kindly identify which of P and Q has the larger recorded RP-LC retention time value. Write the label of whichever entry you select. Q
(Q: 957 s, P: 646 s)

---

- Assay Remarks: gradient 5% acetonitrile 3 min, to 50% in 2 min, to 85% in 15 min, held 3 min, 100 µL/min
- Assay Setup: column: Zorbax Extend-C18 2.1 x 50 mm; eluents: water / acetonitrile, 0.1% formic acid
Parameter: RP-LC retention time (s)

// solved cases for RP-LC retention time follow
O=S(=O)(NCC1CCN(Cc2ccc(Cl)cc2)CC1)c1ccc2c(c1)-c1oncc1CO2 = 708
Cc1cc(N2CCN(C(=O)Nc3ccccc3F)CC2)nc(N2CCCC2)n1 = 626
CCOCCCNC(=O)C1Cn2cccc2C(=O)N1 (centres undefined) = 592
CCc1nn2c(CNC(=O)c3cccc(C)c3)c(-c3ccccc3)nc2s1 = 936
COC(=O)CNC(=O)N1CCC(N2C(=O)C3(CCCC3)C2c2scnc2C)CC1 (centres undefined) = 653
Cc1cccc(NC(=O)C2CCCN(c3ncnc4c3oc3ccccc34)C2)c1 (centres undefined) = 845

1 = COc1ccccc1C(=O)NC1CCN(c2cc(C)cc(C)c2)C1=O (centres undefined)
2 = Cc1oc(-c2ccc(C(=O)NCCCN3CCOCC3)cc2)nc1CN1CCc2ccccc21
Parameter metric = RP-LC retention time. Return the lower-valued option from 1 and 2 . Mark your selection by writing its label. 2
(2: 603 s, 1: 928 s)

---

- Assay Remarks: gradient 5% acetonitrile 3 min, to 50% in 2 min, to 85% in 15 min, held 3 min, 100 µL/min
- Assay Setup: column: Zorbax Extend-C18 2.1 x 50 mm; eluents: water / acetonitrile, 0.1% formic acid
Parameter: RP-LC retention time (s)

CC(C)(C)C(=O)NC1CCN(C(=O)c2ccc(F)cc2)C1 (stereo not given) = 688
Cc1cnc(C2CN(C(=O)C3(c4ccccc4)CC3)C2)n1Cc1cccnc1 = 585
O=C(NC1CCCCC1)c1nc(-c2ccnc(N3CCCCC3)c2)no1 = 804
O=C(Nc1cccc(F)c1)C1CCCN(S(=O)(=O)c2cc(-c3noc(C4CCC4)n3)cs2)C1 (stereo not given) = 1190
O=C(C1CCC1)N1CCCC(OCc2nc(-c3ccncc3)no2)C1 (stereo not given) = 713
CC(=O)N1c2ccc(S(=O)(=O)N3CCCCCC3)cc2CC1C(=O)NCCN(C)C (stereo not given) = 637

I = O=C1CC(c2ccccc2Cl)Cc2nc(N3CCN(Cc4ccc5c(c4)OCO5)CC3)ncc21 (stereo not given)
II = CCC(C)n1c(=O)c2ccccc2n(Cc2nc(-c3ccc(Cl)cc3)no2)c1=O (stereo not given)
# compare RP-LC retention time for I vs II ; return the one with the smaller value Answer format: the label of the selected item. I

---

- Assay Remarks: gradient 5% acetonitrile 3 min, to 50% in 2 min, to 85% in 15 min, held 3 min, 100 µL/min
- Assay Setup: column: Zorbax Extend-C18 2.1 x 50 mm; eluents: water / acetonitrile, 0.1% formic acid
Parameter: RP-LC retention time (s)

COc1ccc(-c2c(C)noc2NC(C)=O)cc1S(=O)(=O)Nc1ccccc1 = 721
O=C(NC1CCCCCCC1)C1CCCN(c2cn[nH]c(=O)c2)C1 (stereo not given) = 719
O=C(Cc1ccc(Cl)cc1)N1CCN(c2nnc3ccccn23)CC1 = 663

A = Cc1cc(N2CCN(c3ccccc3)CC2)n2nc(-c3cccnc3)nc2n1
B = CN1CCN(c2ncc(C(=O)O)c(-c3ccccc3)n2)CC1
Lowest RP-LC retention time? choose A or B Give the label of your selection. B
(B: 562 s, A: 863 s)

---

- Assay Remarks: gradient 5% acetonitrile 3 min, to 50% in 2 min, to 85% in 15 min, held 3 min, 100 µL/min
- Assay Setup: column: Zorbax Extend-C18 2.1 x 50 mm; eluents: water / acetonitrile, 0.1% formic acid
Parameter: RP-LC retention time (s)

CCc1ccc(NC(=O)C2CCN(S(=O)(=O)c3ccc4c(c3)NC(=O)C(CC)O4)CC2)cc1 (centres undefined) = 963

1 = Cc1ccccc1NC(=O)N1C[C@@H]2C[C@H](NC(=O)c3cccs3)[C@H]1C2
2 = CCc1nc(-c2csc(S(=O)(=O)N3CCCC(C(=O)Nc4ccccc4CC)C3)c2)no1 (centres undefined)
# argmax over RP-LC retention time for candidates 1 and 2 # answer = label of selected item 2

---

- Assay Remarks: gradient 5% acetonitrile 3 min, to 50% in 2 min, to 85% in 15 min, held 3 min, 100 µL/min
- Assay Setup: column: Zorbax Extend-C18 2.1 x 50 mm; eluents: water / acetonitrile, 0.1% formic acid
Parameter: RP-LC retention time (s)

Some solved cases for reference:
CCn1c(=O)oc2cc(-c3noc(-c4ccc(OC)cc4)n3)ccc21 = 976
O=C(NCc1ccc(F)cc1F)C1CCN(C(=O)c2ncn3c2COC(c2ccc(F)cc2)C3)CC1 (stereo not given) = 776
CC(C)N1C(=O)C2(CCCCC2)C1C(=O)N1CCOCC1 (stereo not given) = 633
COc1ccc(NC(=O)CN2C(=O)C(C)(C)c3ccccc32)cc1OC = 778
Cn1cc(SCC(=O)NCc2ccco2)c2ccccc21 = 778

I = COc1cccc(N2CCN(C(=O)c3cc4c(=O)n(C)ccc4n3C)CC2)c1
II = CCOC(=O)c1c(NC(=O)C2CCN(S(=O)(=O)Cc3ccccc3)CC2)sc2c1CCCC2
Sort I and II by RP-LC retention time descending and give the first. Identify your pick by its label. II

---

- Assay Remarks: gradient 5% acetonitrile 3 min, to 50% in 2 min, to 85% in 15 min, held 3 min, 100 µL/min
- Assay Setup: column: Zorbax Extend-C18 2.1 x 50 mm; eluents: water / acetonitrile, 0.1% formic acid
Parameter: RP-LC retention time (s)

O=C(Nc1ccc(Nc2ccncc2)cc1)c1ccc(Nc2ccnc3ccc([N+](=O)[O-])cc23)cc1 = 636

I = O=C(Nc1ccc(Cl)cc1F)C1Oc2ccccc2NC1=O (centres undefined)
II = CCN(CC)S(=O)(=O)c1cc(-c2nnc(-c3ccc(Br)cc3)o2)ccc1C
// compare: I vs II , metric RP-LC retention time, want the smaller Reply with the label of the item you choose. I
(I: 824 s, II: 1230 s)

I = O=C(c1ccsc1)N1CCC2(CCC2N2CCOCC2)CC1 (centres undefined)
II = Cc1ccc(NC(=O)N2CCCC(C)(C(=O)NCc3ccccc3)C2)cc1Cl (centres undefined)
Dear colleague, could you let me know whether I or II has the lower recorded RP-LC retention time? Thanks. # respond with the chosen item's label I

P = Cc1ccc(S(=O)(=O)c2cnc(N3CCN(c4ccccc4)CC3)nc2N)cc1C
Q = CNC(=O)[C@H]1C[C@H](Oc2ccccc2)CN1C(=O)CCc1nc2ccccc2s1
Which value of RP-LC retention time is numerically greater: that of P or that of Q ? Label of pick, please. P
(P: 1110 s, Q: 759 s)

1 = O=C(c1ccc(F)cc1)N1CCC2(CC1)OCC(C(=O)N1CCCC1)N2C(=O)c1cccc(F)c1 (centres undefined)
2 = CCc1sc(NC(=O)Cc2c(F)cccc2Cl)nc1-c1ccccc1
Smaller RP-LC retention time value, 1 vs 2 ? // output: label of the selected item 1
(1: 715 s, 2: 1150 s)
